Data origin, for the record: patent US12545735B2

Test system: A549 cells
Assay: 6-day in vitro cytotoxicity assay (nuclear counts)
Format: cell-based, human
Conditions: 6-day treatment
Protocol: To determine the relative cell-killing potency of anti-MET antibody drug conjugates (ADCs) described herein, cell-killing assays were run on multiple cells lines expressing varying levels of endogenous MET. To measure in vitro cytotoxicity of anti-MET ADCs, nuclear counts after a 3 or 6-day treatment with the ADCs was assessed. […] Background nuclear counts from cells treated with […] digitonin were subtracted from all wells and viability was expressed as a percentage of the untreated controls. […]
Endpoint name: IC50 (nM)
# output: bare number, implied unit nM

If you can, please state the reported IC50 value of COc1cc2cc(c1Cl)N(C)C(=O)CC(OC(=O)C(C)N(C)C(=O)CCSSC)C1(C)OC1C(C)C1CC(O)(NC(=O)O1)C(OC)C=CC=C(C)C2 (centres unmarked) .
0.49
